Below, each entry is listed with its recorded gametocyte viability.
Tested on: Plasmodium falciparum NF54/iGP1_RE9H ulg8 stage V gametocytes
Test: gametocyte viability (luciferase signal relative to DMSO control) (% of DMSO control); higher = less gametocytocidal activity, active = 50 or less
Details: concentration: 10 µM; exposure time: 72 h
Just the number, please, no unit after it.

Solved entries:
COCc1cc(O)c(O)c(O)c1-c1c(COC)cc(O)c(O)c1O ... 92.3
Cn1cnc2c(NCc3ccccc3)nc(NCCO)nc21 ... 91.5
CNC(=O)c1cc(COc2nnc(Nc3ccc(Cl)cc3)c3ccoc23)ccn1 ... 115
COc1ccc(-c2cc3c(C)nc(N)nc3n([C@H]3CC[C@H](OCCO)CC3)c2=O)cn1 ... 84.2

# next compound below
**Q:** # gametocyte viability lookup, item CO[C@H]1C[C@@H]2CC[C@@H](C)[C@@](O)(O2)C(=O)C(=O)N2CCCC[C@H]2C(=O)O[C@H]([C@H](C)C[C@@H]2CC[C@@H](OCCO)[C@H](OC)C2)CC(=O)[C@H](C)/C=C(\C)[C@@H](O)[C@@H](OC)C(=O)[C@H](C)C[C@H](C)/C=C/C=C/C=C/1C [Everolimus (RAD001)]
**A:** 94.2

----------
Test system: Plasmodium falciparum NF54/iGP1_RE9H ulg8 stage V gametocytes
Assay: gametocyte viability (luciferase signal relative to DMSO control) (% of DMSO control); higher = less gametocytocidal activity, active = 50 or less
Conditions: concentration: 1 µM; exposure time: 72 h
Binary label based on gametocyte viability with cut-off 100: below gives yes (1), not below gives no (0).

CCOc1ccn(-c2ccc(F)cc2)c(=O)c1C(=O)Nc1ccc(Oc2ccnc(N)c2Cl)c(F)c1 ... yes (1)
CO[C@H]1C[C@@H]2CC[C@@H](C)[C@@](O)(O2)C(=O)C(=O)N2CCCC[C@H]2C(=O)O[C@H]([C@H](C)C[C@@H]2CC[C@@H](OP(C)(C)=O)[C@H](OC)C2)CC(=O)[C@H](C)/C=C(\C)[C@@H](O)[C@@H](OC)C(=O)[C@H](C)C[C@H](C)/C=C/C=C/C=C/1C [Deforolimus (Ridaforolimus)] ... yes (1)
CC(C)c1cnc(NC(=O)Cc2ccccc2)s1 ... yes (1)
Oc1cc(O)cc(/C=C/c2ccc(O)c(O)c2)c1 ... yes (1)
Cc1ccc(-n2nc(C(C)(C)C)cc2NC(=O)Nc2ccc(OCCN3CCOCC3)c3ccccc23)cc1 ... yes (1)
CN(C)CCCn1cc(C2=C(c3c[nH]c4ccccc34)C(=O)NC2=O)c2ccccc21 ... yes (1)
COc1ccc(-c2cc3c(C)nc(N)nc3n([C@H]3CC[C@H](OCCO)CC3)c2=O)cn1 ... yes (1)
c1ccc2c(-c3cnn4cc(-c5ccc(N6CCNCC6)cc5)cnc34)ccnc2c1 ... no (0)

**Q:** Hello, is gametocyte viability of the following molecule strictly smaller than 100? CCS(=O)(=O)Nc1ccc2[nH]c(O)c(C(=Nc3ccc(CN4CCCCC4)cc3)c3ccccc3)c2c1
**A:** no (0)

**Q:** Hello, is gametocyte viability of the following molecule strictly smaller than 100? CC(C)(C)c1cnc(CSc2cnc(NC(=O)C3CCNCC3)s2)o1
**A:** no (0)

**Q:** Hello, is gametocyte viability of the following molecule strictly smaller than 100? COc1ccc(-c2ccc3c(N4CCOC[C@@H]4C)nc(N4CCOC[C@@H]4C)nc3n2)cc1CO
**A:** yes (1)

**Q:** Hello, is gametocyte viability of the following molecule strictly smaller than 100? Cc1cc2ncc(-c3ccccc3)nc2cc1C
**A:** yes (1)

**Q:** Hello, is gametocyte viability of the following molecule strictly smaller than 100? C[C@@H]1CN(CC(=O)Nc2ccc3c(c2)Cc2cccc(-c4cc(=O)cc(N5CCOCC5)o4)c2S3)C[C@H](C)O1
**A:** yes (1)

**Q:** Hello, is gametocyte viability of the following molecule strictly smaller than 100? O=c1c(-c2ccc(O)cc2)coc2cc(O)ccc12
**A:** no (0)

Entry source: the supplement of paper PMC12297408
